- Tested on: HOP-62
- procedure details: NCI tumour cell line growth inhibition, 48 h
Active and inactive are the calls of the source. No stated cut-off is given here; in the data, active = GI50 up to about 1.1 µM and inactive = higher.
measured attribute: GI50

For orientation, consider the following solved cases.
# molecule, GI50
data = [
    ("CC(=O)Oc1ccc(-c2cc3ccccc3oc2=O)cc1", "> 100 µM (inactive)"),
    ("COC(=O)C#CC1(O)C=CC(=O)C=C1", "4.72 µM (inactive)"),
]

Now for the molecule whose GI50 we want.
Query :: If you can, please state the reported GI50 value of Cn1cnc2nc(Cl)nc(NC(C)(C)C(C)(C)O)c21 .
Result :: > 100 µM (inactive)

###

- Test system: IGROV-1
- procedure details: NCI tumour cell line growth inhibition, 48 h
Activity calls are given as the source filed them. No stated cut-off is given here; in the data, active = GI50 up to about 1.1 µM and inactive = higher.
measured attribute: GI50

For orientation, consider the following solved cases.
# compound, GI50
data = [
    ("COc1ccc(O)cc1C(O)c1ccccc1 (stereo not given)", "> 100 µM (inactive)"),
    ("Cc1c2c(C#N)nccc2c(C)c2c1c1ccccc1n2Cc1ccccc1", "> 100 µM (inactive)"),
    ("N=c1c2ccccc2nc2oc3cc([N+](=O)[O-])ccc3n12", "27.4 µM (inactive)"),
    ("O=C(CSc1nnc(-c2ccccn2)s1)N/N=C/c1ccc([N+](=O)[O-])cc1", "20.9 µM (inactive)"),
]

Query :: Recorded GI50 for N#CCCN(CCC#N)c1ccc(C(=N/c2ccc(F)cc2)/N=N/c2ccccc2)cc1 with IGROV-1, please?
Result :: > 100 µM (inactive)

Query :: Recorded GI50 for COC1=C(OC)C(=O)C(Sc2ccc3ccccc3c2)=CC1=O with IGROV-1, please?
Result :: 12.4 µM (inactive)

Query :: Recorded GI50 for CC1=C2CC(C)(C)/C=C\C(=O)/C(C)=C\C3=C[C@H](C)C[C@]3(O2)C1=O with IGROV-1, please?
Result :: 1.56 µM (inactive)

Query :: Recorded GI50 for O=C1OCCC1(Cc1ccc(Cl)cc1)Cc1ccc(Cl)cc1 with IGROV-1, please?
Result :: > 100 µM (inactive)

Query :: Recorded GI50 for CC(C)=CC1C[C@H](C2CC=C3C2(C)CCC2[C@@]3(C)C(=O)CC3[C@]2(C)C=CC(=O)[C@]3(C)CO)CO1 (stereo not given in full) with IGROV-1, please?
Result :: 13.6 µM (inactive)

Query :: Recorded GI50 for CC1=NN(c2cccc(Cl)c2)C(=N/c2nc3ccccc3s2)/C1=C\c1ccc(Cl)cc1 with IGROV-1, please?
Result :: 13.5 µM (inactive)
